These data points were gathered from PubChem BioAssay AID2551.

- tested_on: Nuclear receptor ROR-gamma (Mus musculus)
- protocol_summary: qHTS for inhibitors of ROR gamma transcriptional activity; note: nearly all actives have a fitted effect of over 60% in size; note: potency is the fitted concentration of half-maximal effect
- condition_label: Drosophila S2 Gal4-RORgamma UAS-luciferase reporter, 20 h; series mostly up to 53.6 µM
Out of some 310,000 compounds screened, about 17,000 (5.5%) were called active. Inconclusive results (about 11%) are left out. This is one part of a sample in which actives are shown more often than they occur.
readout_name: Potency

Illustrative cases are given below, each with its answer.
Cc1ccc(C(=O)N2CC(=O)Nc3ccc(F)cc3C2c2ccc(F)cc2)cc1 (centres undefined)    inactive
S=C(NCc1cccnc1)Nc1ccc(Cl)cc1Cl    inactive
CCCCn1c(SCC(=O)NCC2CCCO2)nc2ccc(N3CCOCC3)cc2c1=O (centres undefined)    2.51 µM (active)
CCOC(=O)c1cc2c(nc1NC(=S)Nc1ccccc1)CC(C)(CC)OC2 (centres undefined)    3.55 µM (active)
COc1ccc2[nH]c3nc(SCC(=O)NC4CC4)nnc3c2c1    inactive
Cc1ccc(CN(C)Cc2cc(=O)oc3cc(C)c(Cl)cc23)cc1    inactive
CNC(=O)C1CCN(S(=O)(=O)c2c(C)noc2/C=C/c2cccc(C)c2)CC1    inactive
CCOC(=O)c1cc2cc3ccccc3cc2oc1=O    inactive
COc1cccc(N(CC(=O)NC2CCCC2)C(=O)Cn2nnc(-c3ccc(C)o3)n2)c1    inactive
Cc1cccc(NS(=O)(=O)c2cc(Cl)ccc2Cl)n1    inactive

Input: Could you tell me which Potency is on file for CN(C)c1nc(=Nc2cccc(Cl)c2)ss1 ?
Output: 0.398 µM (active)

Input: So what does the record say about Potency for CC(CCc1ccccc1)NC(=O)c1cnc(Cl)c(Cl)c1 (centres undefined) ?
Output: inactive

Input: Sample COCC1CCN(C(=O)C2CCC(=O)N(CC3CCCCC3)C2)CC1 (centres undefined) — what was its Potency?
Output: inactive

* * *

- tested_on: Nuclear receptor ROR-gamma (Mus musculus) (UniProt P51450)
- Sequence (P51450 whole entry, looked up): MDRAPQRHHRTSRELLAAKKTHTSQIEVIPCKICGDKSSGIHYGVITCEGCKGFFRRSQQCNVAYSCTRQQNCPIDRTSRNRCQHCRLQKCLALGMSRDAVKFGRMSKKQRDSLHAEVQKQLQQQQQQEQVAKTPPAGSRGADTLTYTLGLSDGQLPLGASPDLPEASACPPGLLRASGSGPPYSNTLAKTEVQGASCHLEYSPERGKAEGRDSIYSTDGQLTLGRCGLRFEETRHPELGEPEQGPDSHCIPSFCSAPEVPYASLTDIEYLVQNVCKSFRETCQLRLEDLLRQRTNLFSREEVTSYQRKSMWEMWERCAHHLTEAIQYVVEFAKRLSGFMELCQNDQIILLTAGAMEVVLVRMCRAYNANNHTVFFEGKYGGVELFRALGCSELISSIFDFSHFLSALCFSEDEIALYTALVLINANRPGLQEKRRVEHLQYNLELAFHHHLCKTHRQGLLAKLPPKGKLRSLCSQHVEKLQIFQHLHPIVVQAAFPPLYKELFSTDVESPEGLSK
- protocol_summary: qHTS for inhibitors of ROR gamma transcriptional activity; note: nearly all actives have a fitted effect of over 60% in size
- condition_label: Drosophila S2 Gal4-RORgamma UAS-luciferase reporter, 20 h; series mostly up to 53.6 µM
The campaign covered roughly 310,000 compounds. About 17,000 (5.5%) were called active. About 11% were inconclusive and are not listed. The call rests on the fitted dose curve; in most records, active means well fitted inhibition curve with a large enough effect; inconclusive means small, poorly fitted or top-dose-only effect, or effect the other way; inactive means no such curve, though single readings can be large or run the other way. The list comes from a sample in which actives are over-represented; it also holds close analogues and randomly drawn compounds.
Respond using exactly one of the listed classes: active, inactive

Input: Recorded test call requested for O=c1oc(/C=C/c2ccccc2)nc2ccccc12
Output: inactive

Input: Recorded test outcome, item O=C(Nc1ccc(F)cc1)C(=O)c1cn(CC(=O)N2CCOCC2)c2ccccc12
Output: inactive

Input: For CCC1(CC)Cc2ccccc2-c2nc(CCl)[nH]c(=O)c21 , what call appears in the results of this test?
Output: active

Input: Write down the call the test reported for this compound. Item: CC(C)c1nc2ccc(C(=O)O)cc2[nH]1
Output: active

Input: Hi, sorry to bother you, what did the test record for COc1ccc(-c2cn[nH]c2-c2ccc(OC)cc2)cc1 ?
Output: inactive

Input: Query: recorded result category for O=C(NCc1ccncc1)C1CCCN(S(=O)(=O)c2ccc(Br)cc2)C1 (stereo unspecified) in this test
Output: inactive

Input: Tell me the assay call for O=[N+]([O-])c1cc(Br)c(O)c(/C=N/Nc2nc3ccccc3s2)c1 please.
Output: inactive

Input: Recorded call for CCN(CCn1cccn1)Cc1cn[nH]c1-c1ccc(OC)cc1F ?
Output: inactive

Input: For this compound, state the assay outcome: COc1ccc(/C=N/NC(=O)CNC(=O)c2ccc(S(=O)(=O)N3CCCC3)cc2)c(OC)c1
Output: inactive

Input: Identify the outcome logged in this assay for the compound shown: Cc1cccc(C(=O)O)c1
Output: inactive

Input: I'd appreciate the recorded outcome for CC(C)c1ccc(C(=O)OC2CCOC2=O)cc1 (stereo unspecified) from this test.
Output: inactive

Input: Test call for this compound, please: CCCOc1ccc(C(=O)NCCc2ccccc2)cc1
Output: active

Input: Hi team, can someone confirm the assay call for O=C(CCNc1n[nH]c(=O)[nH]c1=O)N/N=C\c1ccc(Br)cc1 ?
Output: inactive

Input: What did the test return for COc1ccc2oc(C(=O)NCc3ccco3)c(C)c2c1 ?
Output: inactive

Input: Dear colleague, could you share the recorded outcome for COc1ccc(CC(=O)NCC(=O)N/N=C/c2cc(Br)ccc2OC)cc1 when you have a moment?
Output: active

Input: Query: recorded result category for COc1ccc(C(=O)Nc2nncs2)c(OC)c1 in this test
Output: inactive

Input: Please share the test call associated with CC(C)c1nc2cc(C(=O)NC(C)c3cnn(C)c3)ccc2o1 (stereo unspecified) .
Output: inactive

Input: Returns: the outcome recorded for O=C1CCC(C(=O)N2CCC(O)(c3ccccc3)CC2)CN1CCc1ccccc1 (stereo unspecified) in this assay.
Output: inactive

Input: Look up the recorded call for c1ccc2c(c1)OCC(c1nn3cnnc3s1)O2 (stereo unspecified) in this test.
Output: inactive

Input: Call for entry CCn1c(SCC(=O)NC2CCCC2)nnc1-c1ccoc1C :
Output: inactive

Input: Each compound tested received a call. Report the one for CN(Cc1ccccc1)CC(O)COc1ccc(CNCc2cc3ccccc3s2)cc1 (stereo unspecified) .
Output: inactive

Input: Could you please tell me the result logged for O=C(Cc1ccc([N+](=O)[O-])cc1)N/N=C/c1ccco1 in this assay?
Output: inactive

Input: Name the outcome recorded for COc1ccc(/C=C(/NC(=O)c2ccccc2)C(=O)Nc2cccc(C(=O)O)c2)cc1 in the assay.
Output: inactive

Input: Hi team, can someone confirm the assay call for CC1CCCC(C)N1C(=O)CSc1nnnn1C1CCCC1 (stereo unspecified) ?
Output: inactive

Input: GET /call?item= S=c1[nH]nc(/C=C/c2ccccc2)o1 returns the recorded outcome of this test.
Output: active

Input: Hey, what did the test say about CCOC(=O)N1CCN(C(=O)c2ccc3c(=O)n(CCc4ccc(OC)c(OC)c4)c(=O)[nH]c3c2)CC1 ?
Output: inactive

Input: Test call for this compound, please: CCOC(=O)C1Cn2c(nc3c(c2=O)C(C)(CC)Cc2ccccc2-3)S1 (stereo unspecified)
Output: inactive

Input: Please indicate how the test categorized CN(C)CCN(C(=O)C1=COCCO1)c1nc2ccc(Cl)cc2s1 .
Output: inactive

Input: Please indicate how the test categorized O=C(OC1CCOC1=O)c1ccc(-c2nc3ccccc3s2)s1 (stereo unspecified) .
Output: active

Input: Hi, sorry to bother you, what did the test record for CC1CC(=O)N(CC(=O)Nc2cccc(Cl)c2)c2ccccc2S1(=O)=O (stereo unspecified) ?
Output: inactive

Input: What call does the record list for CCn1c(-c2ccncc2)n[nH]c1=S ?
Output: active

Input: Per the assay record, what outcome was assigned to Cc1ccccc1OCC(=O)Nc1ccc(S(=O)(=O)N2CCOCC2)cc1 ?
Output: inactive

Input: // return assay outcome for O=C(C[C@H]1C(=O)N(c2ccc(F)c(F)c2)C[C@@H]1Cc1ccccc1)Nc1ccccc1
Output: inactive

Input: Per the records of this test, what outcome belongs to COc1ccc(C(=O)NC2=NCCS2)c(OC)c1 ?
Output: active

Input: Dear all, I need the recorded test outcome for N#C/C(C(=S)Nc1ccccc1)=C1/NN=C(N2CCOCC2)N1c1ccccc1 , thank you.
Output: active

Input: What classification did Clc1ccc(CN2CCCCCC2)cc1Cl end up with in this test?
Output: inactive

Input: How was COc1ccc(CC(=O)N/N=C/c2cc([N+](=O)[O-])cc(Br)c2O)cc1 classified in this test?
Output: active

Input: Could you check what this test reported for O=C(NCCc1ccccc1)c1ccc(OCCOc2ccccc2)cc1 ?
Output: inactive

Input: What classification did CCn1c(-c2ccoc2C)n[nH]c1=S end up with in this test?
Output: active

Input: For N#C/C(C(=O)N1CCOCC1)=C1/SC(Cc2ccc(F)cc2)C(=O)N1c1ccccc1 (stereo unspecified) , what call appears in the results of this test?
Output: inactive

Input: Which outcome was assigned to O=C(CC1C(=O)NCCN1C(=O)c1ccc([N+](=O)[O-])cc1)Nc1cccc(Cl)c1 (stereo unspecified) in this test?
Output: inactive

Input: # lookup: test call for CCn1c(SCC(=O)Nc2nc3ccc(OC)cc3s2)nnc1-c1ccoc1C
Output: inactive

Input: Recorded test outcome, item CC(C)Oc1ccc(C(CC(=O)N2CCOCC2)C(C)C)cc1 (stereo unspecified)
Output: inactive

Input: What did this assay record as the result for Cc1c(C=O)c2ccccc2n1CCOc1ccccc1 ?
Output: inactive

Input: Write down the call the test reported for this compound. Item: CC(C)n1c(-c2ccncc2)n[nH]c1=S
Output: active

Input: Look up the recorded call for Cc1c(CC(=O)N2CCN(C(=O)C3COc4ccccc4O3)CC2)c(=O)oc2c(O)c(O)ccc12 (stereo unspecified) in this test.
Output: inactive
